# Tested on: HL-60(TB) leukemia
# TEST PROTOCOL: NCI-60 one-dose screen, 48 h
# CONDITIONS: 10 µM unless noted
About 83,000 compounds went through this panel and 20% of them were active in at least one assay; those are over-represented in the sample as a whole. Calls of active or inactive are those of the source. The calls were made as follows: active = growth percent below 10; inactive = the rest.
Use one of these outcomes when replying: active, inactive

Q. Hi, do you know how COc1ncnc2[nH]cc(CN3CCN(c4ccc(F)cc4)CC3)c12 came out in this test?
A. inactive

Q. Now try CCCCCCCCCCC(C[N+](C)(C)C/C=C/c1ccccc1)C(O)c1ccccc1 (configuration not stated) .
A. active

Q. Now try O=C(OCc1ccc2c(Cl)cc(Cl)c(O)c2n1)N1CCN(C(=O)c2cc3ccccc3[nH]2)CC1 .
A. inactive

Q. Now try Cc1c(C(=O)N[C@@H](Cc2ccccc2)C(=O)C(=O)NCc2ccc(F)cc2)[nH]c2ccccc2c1=O .
A. inactive

Q. Now try COc1ccc(-n2c(SCc3cc(OC)c(OC)c(OC)c3)nc3ccc(C)cc3c2=O)c(OC)c1 .
A. active

* * *

# Tested on: HL-60(TB) leukemia
# TEST PROTOCOL: NCI-60 one-dose screen, 48 h (100 = growth as untreated, 0 = no growth, -100 = all killed)
# CONDITIONS: 10 µM unless noted
# Procedure: Growth inhibition of the HL-60(TB) human tumor cell line is measured as a screen for anti-cancer activity. Cells are grown in 96 well plates and exposed to the test compound for 48 hours. Compounds are tested at a single concentration, which is 10^-5 M for most compounds. The reported endpoint is percent growth (GI% or GIPRCNT), where numbers from 0 - 100% represent growth inhibition, and numbers from -100% - 0 represent cell death. For example, a value of 40 represents 60% growth inhibition. […]
This is part of a sample that, as a whole, favours compounds with a hit. Of some 83,000 tested, about 20% had one in any assay.
Checkbox rule: growth lower than 20% = true (1); growth not lower than 20% = false (0).

Q. Hi there! Is growth for COc1ccc(-c2nc(-c3nc4ccc(OC)cc4[nH]3)c3ccccn23)cc1 below 20%, do you know?
A. false (0)

* * *

# Test system: RPMI-8226 leukemia
# TEST PROTOCOL: NCI-60 one-dose screen, 48 h (100 = growth as untreated, 0 = no growth, -100 = all killed)
# CONDITIONS: 10 µM unless noted
This is part of a sample that, as a whole, favours compounds with a hit. Of some 83,000 tested, about 20% had one in any assay. Active and inactive are the calls of the source. The calls were made as follows: active = growth percent below 10; inactive = the rest.
ASSAY READOUT: growth

Known results for compounds:
* CCC(C)(C)O | 106% (inactive)
* Oc1ccccc1OB(Oc1ccccc1O)N(CCCl)CCCl | 39.2% (inactive)
* CSc1ccccc1NP1(=O)OCC(C)([N+](=O)[O-])CO1 (configuration not stated) | 111% (inactive)

Q. Record request: growth value, item CC(=O)C1CCC2C3CC=C4CC(OC(=O)Cc5ccc(N(CCCl)CCCl)cc5)CCC4(C)C3CCC12C (configuration not stated)
A. 73.2% (inactive)

Q. Now try O=C(CCF)c1ccc(O)cc1 .
A. 97.5% (inactive)

Q. Now try N#CC(C#N)=Cc1ccc2ccccc2c1 .
A. 90.3% (inactive)

Q. Now try NC(=O)NC(=O)CI .
A. 91.3% (inactive)
